Target: protein phosphatase 1 (PP1) (Oryctolagus cuniculus, UniProt P62139)
Construct: purchased England Biolabs, Hitchin, UK (New England Biolabs) 754S
Sequence (P62139 whole entry): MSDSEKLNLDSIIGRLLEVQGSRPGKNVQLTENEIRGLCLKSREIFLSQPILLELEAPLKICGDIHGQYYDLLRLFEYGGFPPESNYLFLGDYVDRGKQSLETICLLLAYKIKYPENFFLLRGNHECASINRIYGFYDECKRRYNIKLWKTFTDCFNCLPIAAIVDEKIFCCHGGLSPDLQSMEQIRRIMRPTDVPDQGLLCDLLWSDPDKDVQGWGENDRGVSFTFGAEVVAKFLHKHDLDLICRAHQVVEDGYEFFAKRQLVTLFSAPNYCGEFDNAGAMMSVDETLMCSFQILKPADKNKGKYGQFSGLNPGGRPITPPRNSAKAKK
Assay: protein phosphatase 1 inhibition assay
Type: biochemical
Set-up: key: - not active; */** small/medium activity; */** small/medium activity
Conditions: highest concentration 45.4 μg/mL
measurement kind: Enzyme Inhibition Protein Phosphatase 1 (activity class)

Example molecules with recorded Enzyme Inhibition Protein Phosphatase 1 (activity class):
{"molecule": "CCCCCC(=O)N[C@@H](CC(=O)O)C(=O)N[C@@H]1C(=O)N[C@@H](CCCNC(=N)N)C(=O)N[C@H]2CC[C@@H](O)N(C2=O)[C@@H](Cc2ccccc2)C(=O)N(C)[C@@H](CCc2ccc(O)cc2)C(=O)N[C@@H](C(C)C)C(=O)O[C@@H]1C [CP 1020, [Thr+Arg+Ahp+Phe+MeHty+Val]Asp+HA]", "endpoint value": "-"}
{"molecule": "CCCCCC(=O)N[C@@H](CC(=O)O)C(=O)N[C@@H]1C(=O)N[C@@H](CCCNC(=N)N)C(=O)N[C@H]2CC[C@@H](O)N(C2=O)[C@@H](Cc2ccccc2)C(=O)N(C)[C@@H](Cc2ccccc2)C(=O)N[C@@H](C(C)C)C(=O)O[C@@H]1C [CP 990, [Thr+Arg+Ahp+Phe+MePhe+Val]Asp+HA]", "endpoint value": "-"}
{"molecule": "CCCCCCCC(=O)N[C@@H](CC(=O)O)C(=O)N[C@@H]1C(=O)N[C@@H](CCCNC(=N)N)C(=O)N[C@H]2CC[C@@H](O)N(C2=O)[C@@H](Cc2ccccc2)C(=O)N(C)[C@@H](CCc2ccc(O)cc2)C(=O)N[C@@H](C(C)C)C(=O)O[C@@H]1C [CP 1048, [Thr+Arg+Ahp+Phe+MeHty+Val]Asp+OA]", "endpoint value": "-"}
{"molecule": "CCCC(=O)NC(CC(=O)O)C(=O)NC1C(=O)NC(CCCNC(=N)N)C(=O)NC2CCC(O)N(C2=O)C(Cc2ccccc2)C(=O)N(C)C(Cc2ccccc2)C(=O)NC(C(C)C)C(=O)OC1C (centres unmarked) [CP 962, [Thr+Arg+Ahp+Phe+MePhe+Val]Asp+BA]", "endpoint value": "-"}

Could you now look at the following molecule, please?
q: Test system protein phosphatase 1 (PP1) (Oryctolagus cuniculus, UniProt P62139); read-out Enzyme Inhibition Protein Phosphatase 1 (activity class); what value for CCCC(=O)N[C@@H](CC(=O)O)C(=O)N[C@@H]1C(=O)N[C@@H](Cc2ccc(O)cc2)C(=O)N[C@H]2CC[C@@H](O)N(C2=O)[C@@H](Cc2ccccc2)C(=O)N(C)[C@@H](Cc2ccccc2)C(=O)N[C@@H](C(C)C)C(=O)O[C@@H]1C [CP 969, [Thr+Tyr+Ahp+Phe+MePhe+Val]Asp+BA] ?
a: -

---

Target: Thrombin (Bos taurus, UniProt P00735)
Construct: purchased Sigma-Aldrich T4648
Assay: thrombin inhibition assay
Format: biochemical
Design: key: - not active; */** small/medium activity; */** small/medium activity
Conditions: highest concentration 45.4 μg/mL
measurement kind: Enzyme Inhibition Thrombin (activity class)

{"compound": "CCCCCC(=O)N[C@@H](CC(=O)O)C(=O)N[C@@H]1C(=O)N[C@@H](CCCNC(=N)N)C(=O)N[C@H]2CC[C@@H](O)N(C2=O)[C@@H](Cc2ccccc2)C(=O)N(C)[C@@H](CCc2ccc(O)cc2)C(=O)N[C@@H](C(C)C)C(=O)O[C@@H]1C [CP 1020, [Thr+Arg+Ahp+Phe+MeHty+Val]Asp+HA]", "endpoint value": "-"}
{"compound": "CCCC(=O)N[C@@H](CC(=O)O)C(=O)N[C@@H]1C(=O)N[C@@H](Cc2ccc(O)cc2)C(=O)N[C@H]2CC[C@@H](O)N(C2=O)[C@@H](Cc2ccccc2)C(=O)N(C)[C@@H](CCc2ccc(O)cc2)C(=O)N[C@@H](C(C)C)C(=O)O[C@@H]1C [CP 999, [Thr+Tyr+Ahp+Phe+MeHty+Val]Asp+BA]", "endpoint value": "-"}

---

Target: protein phosphatase 1 (PP1) (Oryctolagus cuniculus, UniProt P62139)
Construct: purchased England Biolabs, Hitchin, UK (New England Biolabs) 754S
Assay: protein phosphatase 1 inhibition assay
Assay type: biochemical
Set-up: key: - not active; */** small/medium activity; */** small/medium activity
Details: highest concentration 45.4 μg/mL
measurement kind: Enzyme Inhibition Protein Phosphatase 1 (activity class)

{"molecule": "CCCC(=O)N[C@@H](CC(=O)O)C(=O)N[C@@H]1C(=O)N[C@@H](CCCNC(=N)N)C(=O)N[C@H]2CC[C@@H](O)N(C2=O)[C@@H](Cc2ccccc2)C(=O)N(C)[C@@H](CCc2ccc(O)cc2)C(=O)N[C@@H](C(C)C)C(=O)O[C@@H]1C [CP 992, [Thr+Arg+Ahp+Phe+MeHty+Val]Asp+BA]", "endpoint value": "-"}

---

Biological target: trypsin from porcine pancreas (Sus scrofa)
Construct: purchased Sigma-Aldrich T0303; host or cells: porcine pancreas
Sequence (P00761 9-231): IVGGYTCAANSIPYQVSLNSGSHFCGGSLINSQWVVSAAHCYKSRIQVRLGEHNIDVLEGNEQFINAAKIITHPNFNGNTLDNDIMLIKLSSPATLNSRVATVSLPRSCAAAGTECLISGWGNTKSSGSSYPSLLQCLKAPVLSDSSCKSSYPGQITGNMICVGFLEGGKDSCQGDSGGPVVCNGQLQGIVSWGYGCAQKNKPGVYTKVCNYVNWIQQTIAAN
Assay: trypsin inhibition assay
Type: biochemical
Parameters: key: - not active; */** small/medium activity; */** small/medium activity
Conditions: class symbols
measurement kind: Enzyme Inhibition Trypsin (activity class)

Example molecules with recorded Enzyme Inhibition Trypsin (activity class):
{"molecule": "CCCCCC(=O)N[C@@H](CC(=O)O)C(=O)N[C@@H]1C(=O)N[C@@H](CCCNC(=N)N)C(=O)N[C@H]2CC[C@@H](O)N(C2=O)[C@@H](Cc2ccccc2)C(=O)N(C)[C@@H](Cc2ccc(O)cc2)C(=O)N[C@@H](C(C)C)C(=O)O[C@@H]1C [CP 1006, [Thr+Arg+Ahp+Phe+MeTyr+Val]Asp+HA]", "assay target": "trypsin from porcine pancreas (Sus scrofa)", "endpoint value": "**"}
{"molecule": "CCCCCC(=O)N[C@@H](CC(=O)O)C(=O)N[C@@H]1C(=O)N[C@@H](Cc2ccc(O)cc2)C(=O)N[C@H]2CC[C@@H](O)N(C2=O)[C@@H](Cc2ccccc2)C(=O)N(C)[C@@H](Cc2ccc(O)cc2)C(=O)N[C@@H](C(C)C)C(=O)O[C@@H]1C [CP 1013, [Thr+Tyr+Ahp+Phe+MeTyr+Val]Asp+HA]", "assay target": "trypsin from porcine pancreas (Sus scrofa)", "endpoint value": "-"}
{"molecule": "CCCC(=O)NC(CC(=O)O)C(=O)NC1C(=O)NC(Cc2ccc(O)cc2)C(=O)NC2CCC(O)N(C2=O)C(Cc2ccccc2)C(=O)N(C)C(Cc2ccc(O)cc2)C(=O)NC(C(C)C)C(=O)OC1C (stereo not drawn) [CP 985, [Thr+Tyr+Ahp+Phe+MeTyr+Val]Asp+BA]", "assay target": "trypsin from porcine pancreas (Sus scrofa)", "endpoint value": "-"}
{"molecule": "CCCCCC(=O)N[C@@H](CC(=O)O)C(=O)N[C@@H]1C(=O)N[C@@H](CCCNC(=N)N)C(=O)N[C@H]2CC[C@@H](O)N(C2=O)[C@@H](Cc2ccccc2)C(=O)N(C)[C@@H](Cc2ccccc2)C(=O)N[C@@H](C(C)C)C(=O)O[C@@H]1C [CP 990, [Thr+Arg+Ahp+Phe+MePhe+Val]Asp+HA]", "assay target": "trypsin from porcine pancreas (Sus scrofa)", "endpoint value": "**"}
{"molecule": "CCCC(=O)N[C@@H](CC(=O)O)C(=O)N[C@@H]1C(=O)N[C@@H](Cc2ccc(O)cc2)C(=O)N[C@H]2CC[C@@H](O)N(C2=O)[C@@H](Cc2ccccc2)C(=O)N(C)[C@@H](CCc2ccc(O)cc2)C(=O)N[C@@H](C(C)C)C(=O)O[C@@H]1C [CP 999, [Thr+Tyr+Ahp+Phe+MeHty+Val]Asp+BA]", "assay target": "trypsin from porcine pancreas (Sus scrofa)", "endpoint value": "-"}
{"molecule": "CCCCCC(=O)N[C@@H](CC(=O)O)C(=O)N[C@@H]1C(=O)N[C@@H](Cc2ccc(O)cc2)C(=O)N[C@H]2CC[C@@H](O)N(C2=O)[C@@H](Cc2ccccc2)C(=O)N(C)[C@@H](CCc2ccc(O)cc2)C(=O)N[C@@H](C(C)C)C(=O)O[C@@H]1C [CP 1027, [Thr+Tyr+Ahp+Phe+MeHty+Val]Asp+HA]", "assay target": "trypsin from porcine pancreas (Sus scrofa)", "endpoint value": "-"}
{"molecule": "CCCC(=O)N[C@@H](CC(=O)O)C(=O)N[C@@H]1C(=O)N[C@@H](Cc2ccc(O)cc2)C(=O)N[C@H]2CC[C@@H](O)N(C2=O)[C@@H](Cc2ccccc2)C(=O)N(C)[C@@H](Cc2ccccc2)C(=O)N[C@@H](C(C)C)C(=O)O[C@@H]1C [CP 969, [Thr+Tyr+Ahp+Phe+MePhe+Val]Asp+BA]", "assay target": "trypsin from porcine pancreas (Sus scrofa)", "endpoint value": "-"}
{"molecule": "CCCC(=O)NC(CC(=O)O)C(=O)NC1C(=O)NC(CCCNC(=N)N)C(=O)NC2CCC(O)N(C2=O)C(Cc2ccccc2)C(=O)N(C)C(Cc2ccccc2)C(=O)NC(C(C)C)C(=O)OC1C (stereo not drawn) [CP 962, [Thr+Arg+Ahp+Phe+MePhe+Val]Asp+BA]", "assay target": "trypsin from porcine pancreas (Sus scrofa)", "endpoint value": "**"}

q: Test system trypsin from porcine pancreas (Sus scrofa); read-out Enzyme Inhibition Trypsin (activity class); what value for CCCCCCCC(=O)N[C@@H](CC(=O)O)C(=O)N[C@@H]1C(=O)N[C@@H](CCCNC(=N)N)C(=O)N[C@H]2CC[C@@H](O)N(C2=O)[C@@H](Cc2ccccc2)C(=O)N(C)[C@@H](CCc2ccc(O)cc2)C(=O)N[C@@H](C(C)C)C(=O)O[C@@H]1C [CP 1048, [Thr+Arg+Ahp+Phe+MeHty+Val]Asp+OA] ?
a: **
